Data credit: the supplement of paper PMC9170038

- Test system: MS2 coat protein
- PROTOCOL: apparent KD of MS2 coat protein; designed switch direction (-1 OFF switch, 1 ON switch): -1; higher = weaker reporter binding
- SETTINGS: input ligand: FMN 200 uM
MEASURE NAME: apparent KD of MS2 coat protein (nM)

GGGAAAGAGGUAAGGAUAUCCUCCUCGAAAGAGGAGGAGAAGGUACAUGAGGAUCACCCAUGUAAGAAGAAGAG [AK-MS2ROC-r4-Bmoexclusion4-13] (Eterna round: R97, puzzle: Brourd's mod of Exclusion 4) ... 25
GGUGAGCGAGGAUAUACAUGAGGAUCACCCAUGUGACGCUGUCCUUGGAAGAACCUCUGUAGAAGGCGCGGAAU [Veisrien] (Eterna round: R97, puzzle: Exclusion 3) ... 23.5
AAAUAGCAUGAGGAUAUCGAAUUAUAUAUAGUACGAGAAGGCAUGACAUGAGGAUCACCCAUGUUUUGUUGGGA [EX6 #1] (Eterna round: R97, puzzle: Exclusion 6) ... 124
UCUUGUUGUCCGUGAGAAGACAUGAGGAUCACCCAUGUUAGUUUGAUUAUGAUGUGUAAGUUUGUUGCUCGUUUUAU [JR_STOV1_v2_Sub071] (Eterna round: R97, puzzle: Sensor, turn-off variant 1) ... 50.2
UAGUGUUACACAGGAUAUCGCCUCUUAUUACAUGAGGAUCACCCAUGUUUAGUUAGUUACAUGUACGAGAAGGGUGUUGUAGUU [JR_ExcNG2_Sub039] (Eterna round: R96, puzzle: Exclusion NG 2) ... 787

---

Entries and their apparent KD of MS2 coat protein
- Tested on: MS2 coat protein
- PROTOCOL: apparent KD of MS2 coat protein; designed switch direction (-1 OFF switch, 1 ON switch): 1; higher = weaker reporter binding
- SETTINGS: Eterna round: R95; input ligand: microRNA oligo, concentration not stated
MEASURE NAME: apparent KD of MS2 coat protein (nM)

CGUCCGGCCUGUGCUGGCCGGAUGCAUGUACAUGAGGAUCACCCAUGUUCAUGUGCAGGCUUUUUGCUCGUCUUGUG [salish99_mir208a_r3_008] (puzzle: Sensor for hsa-mir-208a) ... 11.9
AGUCCAGCAUGAGCUGGACAAAAGCAUGUACAUGAGGAUCACCCAUGUCAUGUACAAGCUUUUUGCUCGUCUUAAAA [Mat - hsa-mir-208a - Mod of JL - D1] (puzzle: Sensor for hsa-mir-208a) ... 16.7
AGGAAACAUGAGGAUCACCCAUGUAUCGAGCCGCGAGGAUAUGGGUAUCAAAGGCGAGGAUCAGAAGGUGCAGGCG [Eseddierve] (puzzle: Same State 1) ... 54.9
GAUUAACAUGAGGAUCACCCAUGUGUGAAUAUGGGAGGAUAUACGUGGACCGUAGUCCGCGUAGAAGGCCUAAUUG [JL-ss1-3.20 janelle mod] (puzzle: Same State 1) ... 223
GAGUUACAUGAGGAUCACCCAUGUUGUUGUGGAUAAGGAUAUAUGGUAGGAAGAGGAAUGAUAGAAGGUAUUAGGG [JR_SS1_Sub064] (puzzle: Same State 1) ... 34.7

---

- Tested on: MS2 coat protein
- PROTOCOL: apparent KD of MS2 coat protein; designed switch direction (-1 OFF switch, 1 ON switch): 1; higher = weaker reporter binding
- SETTINGS: input ligand: FMN 200 uM
Entries and their apparent KD of MS2 coat protein
MEASURE NAME: apparent KD of MS2 coat protein (nM)

GCUCGAUGAGCUGUCUACAUGAGGAUCACCCAUGUAGAUGGGCAGGAUAUUUACGUGCUUUAUGUAGAGAAGGGCCCAUCGAGC [SameState NG3 #78] (Eterna round: R96, puzzle: Same State NG 3) ... 15.5
CCGAGUGGCGUACAGGAUAUGUUGCAUGGAACAUGAGGAUCACCCAUGUAUUUGCUCCCGCAUACGCAGAAGGGUGCGUCCUGGG [Arraquorso] (Eterna round: R96, puzzle: Same State 2) ... 25
GCUCGAUGAUAGGCCUACAUGAGGAUCACCCAUGUAAGUGGGCAGGAUAUCUACAUGCAGAAUGUAGAGAAGGGCCCGUCGAGC [SameState NG3 #55] (Eterna round: R96, puzzle: Same State NG 3) ... 20.5
GUGCUCGUGUGAGGAUAUGCUUCCGUUUCGGCUGCAGAAGGUACUAUUAUACAUGAGGAUCACCCAUGUCUCUUUUGUUUGGUG [salish99_SSNG1_r04_910] (Eterna round: R96, puzzle: Same State NG 1) ... 95
UAUGACUUACAAGGAUAUUAAUAACAUGAGGAUCACCCAUGUGGCUGUGAGAGUUAGAUAAGCUAUAAGAAGGUGUGUGUGUUU [JR_SSNG2_Sub094] (Eterna round: R96, puzzle: Same State NG 2) ... 62.7
GUAGCAUACCGAGGAUAUUCAUACAUGAGGAUCACCCAUGUUAUUAUAGGCCGAUUACGGCCUUGGGAGAAGGCGGAAUGCUAC [Xeonanis - 20 Mod28] (Eterna round: R96, puzzle: Same State NG 2) ... 13.1
UGUACCUUCACAGGAUAUCAUGCGAAAAUUGCGUGAGAAGGGUGAAUACUGUCUUUCUAAGAGUACAUGAGGAUCACCCAUGUA [SameState NG1 #60] (Eterna round: R96, puzzle: Same State NG 1) ... 50
AUUAAUAAUCGAGGAUAUCACGUCGAAUAGACGUGAGAAGGCGAUCAUAACAUGAGGAUCACCCAUGUAUUACAUGAAAUUAAU [SSNG1/4-B4] (Eterna round: R96, puzzle: Same State NG 1) ... 22.4
AUGAAGAAUUAAGGAUAUUGAUUACAUAUGUUUAACAUGAGGAUCACCCAUGUGGGUUGCGGUAUCGAGAAGGUAAAUUACUAG [JL SSNG2 1.48] (Eterna round: R96, puzzle: Same State NG 2) ... 150

---

- Test system: K4 kissing-loop RNA reporter;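 further: bound reporter read as fluorescence of individual clusters on recovered sequencing chips by microscopy, with normalized cluster intensities fitted with a binding model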
- PROTOCOL: apparent KD of K4 kissing-loop reporter; higher = weaker reporter binding
- SETTINGS: Eterna round: R107; input ligand: theophylline 20 uM
MEASURE NAME: apparent KD of K4 kissing-loop reporter (nM)

UGAUAGGACAGAAGGAGCGGAAGUGAUGUUUCCAAAAGGUAAGGUCGACAAAGUCGACCCUUCCAGGUAGGUCGCUGUCCUAUCU [ArgBX 11 #Palindromic #SwitchBubble #StaticStem] ... 89.2
AAAAUAAACCAGUGAUGUUGGUGUCUAGAUACCAGCGACGAAAGUCGCCCUUGGCAGCUAUGGACGUACAAAAUAAGUACGUCCU [MatMod 6 - Jieux - Same State - Theophylline A] ... 679
AAUAAAAUCACGGCCGCCACUGAAUAAUUGGUAAGUAGUGAUGUUACUUUACUUUUCUUAUUUAACAGGACCGGGUGAAUAUUUA [JR_ExcTryptoB_Sub009] ... 88.2

---

- Test system: MS2 coat protein
- PROTOCOL: apparent KD of MS2 coat protein; designed switch direction (-1 OFF switch, 1 ON switch): -1; higher = weaker reporter binding
- SETTINGS: input ligand: none
MEASURE NAME: apparent KD of MS2 coat protein

GCGGGAAAAGGAUAUGAGAGGUAAUACAUGAGGAUCACCCAUGUGAUAGACUCUGUGCUUUUAGAAGGUUUAUGUC [Eternabot (L1) Solution 19] (Eterna round: R97, puzzle: Exclusion 5) ... 15.3 nM
UAUUAGCAAGUGAGGUCCCACAUGAGGAUCACCCAUGUGCUCGUCUUAUAAGGUACUGUGACGAGAGUCACGGUACC [Mat - Sensor, turn-off var - Eli Mod - D52] (Eterna round: R97, puzzle: Sensor, turn-off variant 1) ... 44.5 nM
AUCGUGUGAGGAUAUCGAUGUUGGACGUCUAGGUCUAAGCGCGAGAAGGCACAUGAGGAUCACCCAUGUAAUGG [jl-ex4-4.27 ViennaUCT mod] (Eterna round: R97, puzzle: Exclusion 4) ... 910 nM
UACACUGCAUGAGGAUCAAACAUGAGGAUCACCCAUGUAUAGCAGGCUUUUUGUGCGUCUUAUAAUUAUGUAGUGUA [Electric Eye 18 - Jieux - Sensor, turn-off variant 1] (Eterna round: R97, puzzle: Sensor, turn-off variant 1) ... 15.3 nM

---

- System: MS2 coat protein
- PROTOCOL: apparent KD of MS2 coat protein; designed switch direction (-1 OFF switch, 1 ON switch): 1; higher = weaker reporter binding
- SETTINGS: input ligand: none
Binary call on apparent KD of MS2 coat protein: yes from 60 nM upward, no beneath that.

UCGUCGACACAAAUUCGACAACAUGAGGAUCACCCAUGUCCACAGGAUAUCGGCAGCUUAUGCUCCGAGAAGGGUGGUUAGAUU [Beage Mod] (Eterna round: R96, puzzle: Same State NG 3) ... yes
GGGAGAGGCGCAGGAUAUGGUGAGGAUUACCCACUAGAAGGGUGCACAUGAGAAUCGAACAUGAGGAUCACCCAUGUUCUGAGC (Eterna round: R96, puzzle: Same State NG 1) ... yes
AGAGGAGGCGCAGGAUAUACGACGGAGGACGAGGUAGAAGGGUGCAUGCGAUAACAUGAGGAUCACCCAUGUACCGCGCGACGA [AK SSNG1-V2-17.1] (Eterna round: R96, puzzle: Same State NG 1) ... no
GUUACAUGAGGAUCACCCAUGUAUGUGUGGGAGUAAGUGUCUUAGGAUAUCUAGGAUUUAAUUUAAGAGAAGGAAGAUUGUUGU [JMF's solution 50] (Eterna round: R96, puzzle: Same State NG 3) ... yes
